Data provenance: paper PMC9971101

# PROTOCOL TEXT: Fluorescence spectroscopy (excitation and emission spectra)
# Format: physicochemical
# EXPERIMENTAL CONTEXT: DMSO
MEASURED PROPERTY: Stokes shift (nm)
Dear colleague, please return just the value in nm, with no unit written.

The compound CC1(C)C(/C=C/C=C/C=C/C=C2\N(CCCCCC(=O)NCCNC(=O)CC[C@H](NC(=O)c3ccc(NCc4cnc5nc(N)[nH]c(=O)c5n4)cc3)C(=O)O)c3ccc4ccccc4c3C2(C)C)=[N+](CCCCS(=O)(=O)[O-])c2ccc3ccccc3c21 [Conjugate 4] showed Stokes shift equal to 42

The compound CC1(C)C(/C=C/C2=C(Oc3ccc(S(=O)(=O)O)cc3)C(=C/C=C3/N(CCCCS(=O)(=O)O)c4ccc(S(=O)(=O)[O-])cc4C3(C)C)/CCC2)=[N+](CCCCCC(=O)NCCNC(=O)CC[C@H](NC(=O)c2ccc(NCc3cnc4nc(N)[nH]c(=O)c4n3)cc2)C(=O)O)c2ccc(S(=O)(=O)O)cc21 [Conjugate 3] showed Stokes shift equal to 28

###

Give measured Stokes shift for each item. Keep answers brief.
# PROTOCOL TEXT: Fluorescence spectroscopy (excitation and emission spectra)
# Assay type: physicochemical
# EXPERIMENTAL CONTEXT: DMSO
Dear colleague, please return just the value in nm, with no unit written.

The molecule CC1(C)C(/C=C/C2=C(c3ccc(CCC(=O)NCCNC(=O)CC[C@H](NC(=O)c4ccc(NCc5cnc6nc(N)[nH]c(=O)c6n5)cc4)C(=O)O)cc3)C(=C/C=C3/N(CCC[N+](C)(C)C)c4ccc(S(=O)(=O)O)cc4C3(C)C)/CCC2)=[N+](CCC[N+](C)(C)C)c2ccc(S(=O)(=O)O)cc21 [Conjugate 2] showed Stokes shift equal to 28

The molecule CC1(C)C(/C=C/C2=C(Oc3ccc(CCC(=O)NCCNC(=O)CC[C@H](NC(=O)c4ccc(NCc5cnc6nc(N)[nH]c(=O)c6n5)cc4)C(=O)O)cc3)C(=C/C=C3/N(CCC[N+](C)(C)C)c4ccc(S(=O)(=O)O)cc4C3(C)C)/CCC2)=[N+](CCC[N+](C)(C)C)c2ccc(S(=O)(=O)O)cc21 [Conjugate 1] showed Stokes shift equal to 24

The molecule C[N+]1=C(/C=C/C2=C(Cl)C(=C/C=C3/N(CCCCCC(=O)NCCNC(=O)CC[C@H](NC(=O)c4ccc(NCc5cnc6nc(N)[nH]c(=O)c6n5)cc4)C(=O)O)c4ccccc4C3(C)C)/CCC2)C(C)(C)c2ccccc21 [Conjugate 5] showed Stokes shift equal to 24

###

# PROTOCOL TEXT: Fluorescence spectroscopy (excitation and emission spectra)
# Type: physicochemical
# EXPERIMENTAL CONTEXT: DMSO
MEASURED PROPERTY: λem (nm)
Dear colleague, please return just the value in nm, with no unit written.

The compound CC1(C)C(/C=C/C2=C(Oc3ccc(S(=O)(=O)O)cc3)C(=C/C=C3/N(CCCCS(=O)(=O)O)c4ccc(S(=O)(=O)[O-])cc4C3(C)C)/CCC2)=[N+](CCCCCC(=O)NCCNC(=O)CC[C@H](NC(=O)c2ccc(NCc3cnc4nc(N)[nH]c(=O)c4n3)cc2)C(=O)O)c2ccc(S(=O)(=O)O)cc21 [Conjugate 3] showed λem equal to 826

The compound C[N+]1=C(/C=C/C2=C(Cl)C(=C/C=C3/N(CCCCCC(=O)NCCNC(=O)CC[C@H](NC(=O)c4ccc(NCc5cnc6nc(N)[nH]c(=O)c6n5)cc4)C(=O)O)c4ccccc4C3(C)C)/CCC2)C(C)(C)c2ccccc21 [Conjugate 5] showed λem equal to 820

The compound CC1(C)C(/C=C/C2=C(Oc3ccc(CCC(=O)NCCNC(=O)CC[C@H](NC(=O)c4ccc(NCc5cnc6nc(N)[nH]c(=O)c6n5)cc4)C(=O)O)cc3)C(=C/C=C3/N(CCC[N+](C)(C)C)c4ccc(S(=O)(=O)O)cc4C3(C)C)/CCC2)=[N+](CCC[N+](C)(C)C)c2ccc(S(=O)(=O)O)cc21 [Conjugate 1] showed λem equal to 816

The compound CC1(C)C(/C=C/C=C/C=C/C=C2\N(CCCCCC(=O)NCCNC(=O)CC[C@H](NC(=O)c3ccc(NCc4cnc5nc(N)[nH]c(=O)c5n4)cc3)C(=O)O)c3ccc4ccccc4c3C2(C)C)=[N+](CCCCS(=O)(=O)[O-])c2ccc3ccccc3c21 [Conjugate 4] showed λem equal to 832

The compound CC1(C)C(/C=C/C2=C(c3ccc(CCC(=O)NCCNC(=O)CC[C@H](NC(=O)c4ccc(NCc5cnc6nc(N)[nH]c(=O)c6n5)cc4)C(=O)O)cc3)C(=C/C=C3/N(CCC[N+](C)(C)C)c4ccc(S(=O)(=O)O)cc4C3(C)C)/CCC2)=[N+](CCC[N+](C)(C)C)c2ccc(S(=O)(=O)O)cc21 [Conjugate 2] showed λem equal to 802

###

# PROTOCOL TEXT: Fluorescence spectroscopy (excitation and emission spectra)
# Assay type: physicochemical
# EXPERIMENTAL CONTEXT: culture medium
Give measured Stokes shift for each item. Keep answers brief.
Dear colleague, please return just the value in nm, with no unit written.

The molecule CC1(C)C(/C=C/C2=C(Oc3ccc(CCC(=O)NCCNC(=O)CC[C@H](NC(=O)c4ccc(NCc5cnc6nc(N)[nH]c(=O)c6n5)cc4)C(=O)O)cc3)C(=C/C=C3/N(CCC[N+](C)(C)C)c4ccc(S(=O)(=O)O)cc4C3(C)C)/CCC2)=[N+](CCC[N+](C)(C)C)c2ccc(S(=O)(=O)O)cc21 [Conjugate 1] showed Stokes shift equal to 25

The molecule CC1(C)C(/C=C/C=C/C=C/C=C2\N(CCCCCC(=O)NCCNC(=O)CC[C@H](NC(=O)c3ccc(NCc4cnc5nc(N)[nH]c(=O)c5n4)cc3)C(=O)O)c3ccc4ccccc4c3C2(C)C)=[N+](CCCCS(=O)(=O)[O-])c2ccc3ccccc3c21 [Conjugate 4] showed Stokes shift equal to 36
